Hey, just so you know, these numbers are from patent US20200317776A1.

Target: T1, cynomolgus monkey TREM2 Fc fusion (entire TREM2 ECD; only one Fc arm fused to TREM2) (cynomolgus monkey, UniProt Q9NZC2 19-174 (human entry))
T1 construct: also called cyno TREM2-Fc
T1 chain: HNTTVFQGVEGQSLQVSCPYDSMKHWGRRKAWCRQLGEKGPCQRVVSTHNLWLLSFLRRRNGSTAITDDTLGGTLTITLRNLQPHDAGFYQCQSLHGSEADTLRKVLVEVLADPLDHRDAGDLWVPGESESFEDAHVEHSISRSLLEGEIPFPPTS
Experiment: BLI, Fab, monovalent
The following binders are listed with their measured pKd values.
Lab note — pKd values are minus log10 of concentrations in M.

Some entries whose results are on file:
Please look up its pKd: AL2p-3 (antibody, V domains shown, AL2p-h50 variant; Fab and IgG formats under one id) VH: QVQLVQSGAEVKKPGSSVKVSCKASGYAFSSSWMNWVRQAPGQGLEWMGRIYPGEGDTNYAQKFQGRVTITADESTSTAYMELSSLRSEDTAVYYCARLLRNQPGESYAMDYWGQGTLVTVSS VL: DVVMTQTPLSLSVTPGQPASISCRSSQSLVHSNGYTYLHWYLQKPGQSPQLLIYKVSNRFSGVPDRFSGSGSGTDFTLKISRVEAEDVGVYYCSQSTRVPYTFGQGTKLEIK
5.34

Entry to check: AL2p-50 (antibody, V domains shown, Fab and IgG formats under one id) VH: QVQLVQSGAEVKKPGSSVKVSCKASGYAFSSHWMNWVRQAPGQGLEWMGRIYPGEGDTNYAQKFHGRVTITADESTSTAYMELSSLRSEDTAVYYCARLLRNQPGESYAMDYWGQGTLVTVSS VL: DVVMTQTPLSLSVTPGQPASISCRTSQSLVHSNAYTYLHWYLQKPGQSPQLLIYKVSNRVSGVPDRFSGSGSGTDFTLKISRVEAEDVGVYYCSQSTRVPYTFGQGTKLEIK
7.44

Entry to check: AL2p-36 (antibody, V domains shown, Fab and IgG formats under one id) VH: QVQLVQSGAEVKKPGASVKVSCKASGYAFSSSWMNWVRQAPGQRLEWIGRIYPGDGDTNYARKFQGRVTITADTSASTAYMELSSLRSEDTAVYYCARLLRNQPGASYAMDYWGQGTLVTVSS VL: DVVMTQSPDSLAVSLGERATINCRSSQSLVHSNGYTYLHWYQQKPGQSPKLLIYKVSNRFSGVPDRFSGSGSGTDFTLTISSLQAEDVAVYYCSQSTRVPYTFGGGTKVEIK
8.13

Entry to check: AL2p-61 (antibody, IgG1, V domains shown) VH: QVQLVQSGAEVKKPGSSVKVSCKASGYAFSSQWMNWVRQAPGQGLEWMGRIYPGEGDTNYARKFQGRVTITADESTSTAYMELSSLRSEDTAVYYCARLLRNQPGESYAMDYWGQGTLVTVSS VL: GVVMTQTPLSLSVTPGQPASISCRSSQSLVHSNQYTYLHWYLQKPGQSPQLLIYKVSNRRSGVPDRFSGSGSGTDFTLKISRVEAEDVGVYYCSQSTRVPYTFGQGTKLEIK
8.42

---
Please look up its pKd: AL2p-14 (antibody, V domains shown, Fab and IgG formats under one id) VH: QVQLVQSGAEVKKPGSSVKVSCKASGYAFSSHWMNWVRQAPGQGLEWMGRIYPGDGDTNYAQKFQGRVTITADESTSTAYMELSSLRSEDTAVYYCARLLRNQPGESYAMDYWGQGTLVTVSS VL: GVVMTQTPLSLSVTPGQPASISCRSSRSLVHSNGYTYLHWYLQKPGQSPQLLIYKVSNRFSGVPDRFSGSGSGTDFTLKISRVEAEDVGVYYCSQSTRVPYTFGQGTKLEIK
8.33
